The origin of these recorded values is PubChem BioAssay (NCI).

test system: SF-268 CNS; test: NCI tumour cell line growth inhibition, 48 h; in the data active means GI50 below about 0.43 µM; inactive means the rest
Please reply with one of these outcomes: y (active), n (inactive)

Past entries and their recorded results:
{"molecule": "N#CC1(C(N)=O)C(c2ccc(Cl)cc2)CC(=O)CC1c1ccc(Cl)cc1 (centres undefined)", "class-name": "n"}
{"molecule": "CCCCCCCCCCCCCCCCCC[n+]1ccc2c(C)c3c(c(C)c2c1)c1cc(O)ccc1n3CC", "class-name": "n"}
{"molecule": "CN[C@@H](C)C(=O)N[C@H](C(=O)N1CCC[C@H]1C(=O)Nc1sc(-c2ncco2)nc1-c1ccccc1)C1CCCCC1", "class-name": "n"}
{"molecule": "O=C1OCC2=C1C(c1ccc(Cl)c(Cl)c1)c1cc3c(cc1N2CCO)OCCO3 (centres undefined)", "class-name": "y"}
{"molecule": "c1cnn2ncc(-c3ccnc(NCCCN4CCOCC4)n3)c2c1", "class-name": "n"}

[ask] Per the assay record, what outcome was assigned to `CNCCCNCCCCNCCCN1C(=O)c2ccc3c4c(ccc(c24)C1=O)C(=O)N(CCCNCc1ccccc1OC)C3=O` ?
[reply] n

[ask] Outcome? `COc1cc2c(cc1OCCCn1c(-c3ccccn3)nc3ccccc31)N=C[C@@H]1CCCN1C2=O`
[reply] n

[ask] Could you please tell me the result logged for CCc1ccc2c(c1)N(CCO)C1=C(C(=O)OC1)C2c1cccc(Br)c1 (centres undefined) in this assay?
[reply] n

[ask] GET /call?item= `COc1ccc(-c2cc(-c3ccc(C)cc3)nc3nc(=S)[nH]c(N)c23)cc1` returns the recorded outcome of this test.
[reply] n
